Data provenance is patent US10508085B2.

# IC50 per entry
Target: human IDO (IDO1-expressing HEK293 cells) (Homo sapiens, UniProt P14902)
Construct: expressed in transfected cells
Sequence (P14902 whole entry): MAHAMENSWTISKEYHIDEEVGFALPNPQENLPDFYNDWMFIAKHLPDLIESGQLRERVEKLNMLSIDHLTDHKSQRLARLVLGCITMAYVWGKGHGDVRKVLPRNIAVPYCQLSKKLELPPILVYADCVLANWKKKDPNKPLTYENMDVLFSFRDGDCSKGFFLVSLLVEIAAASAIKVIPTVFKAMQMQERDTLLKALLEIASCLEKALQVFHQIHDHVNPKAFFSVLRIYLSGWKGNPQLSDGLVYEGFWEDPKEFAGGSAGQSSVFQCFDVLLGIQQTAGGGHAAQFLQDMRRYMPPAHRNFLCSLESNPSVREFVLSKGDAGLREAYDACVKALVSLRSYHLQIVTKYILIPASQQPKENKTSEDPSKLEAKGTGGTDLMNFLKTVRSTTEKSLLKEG
Experiment: Cell based kynurenine assay, IDO1-expressing HEK293 cell clones
Conditions: IDO1-expressing HEK293 cells, 24 hours incubation; geometric mean; read-out: HEK293 IDO1 Kynurenine GMean IC50 (μM) (Cellular Assay)

Consider the reported IC50 for these molecules:
CC(C)OC(=O)N1CCC(C(C)(C)C(O)c2cc(Cl)cc3cn[nH]c23)CC1 (centres unmarked): 0.0001 to 10 µM
CC(C)(C(O)c1cc(Cl)cc2cn[nH]c12)N1CCCCC1 (centres unmarked): > 10 µM

GET /value?item= `CC(C)(C)OC(=O)N1CCC(C(C)(C)[C@H](O)c2cc(Cl)cc3cn[nH]c23)CC1` &field=IC50 returns 0.0001 to 10 µM

* * *

Target: human IDO (IDO1-expressing HEK293 cells) (Homo sapiens)
Construct: expressed in transfected cells
Test: Cell based kynurenine assay, IDO1-expressing HEK293 cell clones
Conditions: IDO1-expressing HEK293 cells, 24 hours incubation; geometric mean; read-out: HEK293 IDO1 Kynurenine GMean IC50 (μM) (Cellular Assay)
attribute measured: IC50

Consider the reported IC50 for these molecules:
OC1(c2cc(Cl)cc3cn[nH]c23)CC2(C1)[C@H]1C[C@@H]3C[C@@H](C[C@H]2C3)C1 (stereo partly drawn): 0.0001 to 10 µM
CS(=O)(=O)N1C2CCC1CN(c1c(F)c(Cl)cc3cn[nH]c13)C2: > 10 µM
OC(c1cc(Cl)cc2cn[nH]c12)C1CCC1 (stereo not drawn): 0.0001 to 10 µM
CC(C)(C1CCN(C(=O)Nc2cccc(F)c2)CC1)C(O)c1cc(Cl)cc2cn[nH]c12 (stereo not drawn): 0.0001 to 10 µM
CC(C)(C1CCN(C(=O)NC2CC2)CC1)C(O)c1cc(Cl)cc2cn[nH]c12 (stereo not drawn): 0.0001 to 10 µM

GET /value?item= CC(C)(C1CCCCC1)C(O)c1cc(Cl)cc2cn[nH]c12 (stereo not drawn) &field=IC50 returns 0.0001 to 10 µM

GET /value?item= CC(C)(C(O)c1cc(Cl)cc2cn[nH]c12)[C@@H]1C[C@H]2CC[C@@H](C1)N2S(C)(=O)=O (stereo partly drawn) &field=IC50 returns 0.0001 to 10 µM

GET /value?item= CC1(C(O)c2cc(Cl)cc3cn[nH]c23)CC(F)(F)C1 (stereo not drawn) &field=IC50 returns 0.0001 to 10 µM

GET /value?item= `CC1(C)OC(C)(C)C12CC(O)(c1cc(Cl)cc3cn[nH]c13)C2` &field=IC50 returns 0.0001 to 10 µM

GET /value?item= OC(c1cc(Cl)cc2cn[nH]c12)C12CCC(CC1)CC2 (stereo not drawn) &field=IC50 returns 0.0001 to 10 µM

GET /value?item= O=C(O)C1CCC(C(O)c2cc(Cl)cc3cn[nH]c23)CC1 (stereo not drawn) &field=IC50 returns > 10 µM

GET /value?item= CC(C)(C1CCN(C(=O)Nc2cccnc2)CC1)C(O)c1cc(Cl)cc2cn[nH]c12 (stereo not drawn) &field=IC50 returns 0.0001 to 10 µM

GET /value?item= C[C@H](NC(=O)N1CCC(C(C)(C)C(O)c2cc(Cl)cc3cn[nH]c23)CC1)c1ccccc1 (stereo partly drawn) &field=IC50 returns 0.0001 to 10 µM

GET /value?item= CC(C)(C1CCS(=O)(=O)CC1)C(O)c1cc(Cl)cc2cn[nH]c12 (stereo not drawn) &field=IC50 returns 0.0001 to 10 µM

GET /value?item= `OC1(c2cc(Cl)cc3[nH]ncc23)CC2(CC2)C1` &field=IC50 returns > 10 µM

GET /value?item= CC(=O)N1CCC(C(F)(F)C(O)c2c(F)c(Cl)cc3cn[nH]c23)CC1 (stereo not drawn) &field=IC50 returns 0.0001 to 10 µM
